# assayTarget: T1, ubiquitin mutein 139819
# T1 construct: Monomer with an insertion of 6 amino acids between positions 9 and 10 of ubiquitin; also called Affilin-139819
# methodDescription: SPR (Biacore 3000), ligand immobilised via C-terminal Cys on CM-5, ubiquitin mutein in solution, Langmuir 1:1
# Kd per entry

binder: affinity ligand 187029 (designed binder, Artificial mosaic protein of Protein A-like structure) NAAMDDFAQYSAWAEIEALPNLTEMQKDQFIWSLMFDPSVSKEVLGEAQKLNDSQAPK
Kd (nM): 75.5
//
binder: affinity ligand 187028 (designed binder) NAARSDEAQYSAWAEIEALPNLTEMQKDQFIWSLMFDPSVSKEVLGEAQKLNDSQAPK
Kd (nM): 47.3
